Attribution: ChEMBL document CHEMBL1122312

test system: Arachidonate 5-lipoxygenase (Cavia porcellus); experiment: Inhibitory activity against 5-lipoxygenase at a dose of 0.1 mM
measurementLabel: inhibition (%)

compound	studyTarget	measureUnit	inhibition
CCCCC/C=C\C\C=C/C=C/C=C/C1SC1CCCC(=O)OC (stereo not given)	Arachidonate 5-lipoxygenase (Cavia porcellus)	%	60
CCCCC/C=C\C\C=C/C=C/C=C/C1CC1CCCC(=O)O (stereo not given)	Arachidonate 5-lipoxygenase (Cavia porcellus)	%	98
CCCCC/C=C\C\C=C/C=C/C=C/C1CC1CCCCC(=O)O (stereo not given)	Arachidonate 5-lipoxygenase (Cavia porcellus)	%	86
CCCCC/C=C\C/C=C\C/C=C\CC1CC1CCCC(=O)O (stereo not given)	Arachidonate 5-lipoxygenase (Cavia porcellus)	%	5

[A] CCCCC/C=C\C/C=C\C/C=C\C=C\C(CO)CCCC(=O)O (stereo not given)
[B] CCCCC/C=C\C/C=C\C/C=C\C=C\C(=O)CCCC(=O)OC
Query block: Please state the entry with greater inhibition among A and B . Use the label to indicate which entry you chose.
Result block: B

[A] CCCCCCCCCCCCCCC1CC1CCCC(=O)O (stereo in doubt; 23)
[B] CCCCC/C=C\C/C=C\C/C=C\C1(/C=C\CCCC(=O)O)CC1
Query block: Please state the entry with greater inhibition among A and B . Use the label to indicate which entry you chose.
Result block: A
(A: 49%, B: 34%)

[A] CCCCCCCCCCCCCCC1CC1CCCC(=O)O (stereo in doubt; 25)
[B] CCCCC/C=C\C\C=C/C=C/C=C/[C@@H]1O[C@H]1CCCC(=O)O
Query block: Please state the entry with greater inhibition among A and B . Use the label to indicate which entry you chose.
Result block: B
